B1: H2-Kb / Ed5 (parent complex)
chain 1: GDSVTQTEGPVTVSESESLIINCTYSATSIAYPNLFWYVRYPGEGLQLLLKVITAGQKGSSRGFEATYNKETTSFHLQKASVQESDSAVYYCALGSYNQGKLIFGQGTKLSIKP
chain 2: DTTVKQNPRYKLARVGKPVNLICSQTMNHDTMYWYQKKPNQAPKLLLFYYDKILNREADTFEKFQSSRPNNSFCSLYIGSAGLEYSAMYLCASSRRLGASQNTLYFGAGTRLSVL
chain 3: not shown
chain 4: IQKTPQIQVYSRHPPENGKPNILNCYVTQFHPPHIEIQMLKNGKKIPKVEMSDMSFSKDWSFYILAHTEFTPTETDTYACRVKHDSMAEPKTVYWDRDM
chain 5: SIINFEKL

variants of: B1; assay: % of reporter cells activated (NFAT-GFP), raw; further: test concentration or dose not given here
Task for the reader: assign each of the following variants its reported ratio to parent.

# get_value(readout='ratio to parent', item= chain 5 L8V )
0.546

# get_value(readout='ratio to parent', item= chain 5 S1T )
0.944

# get_value(readout='ratio to parent', item= chain 5 K7I )
0.65

# get_value(readout='ratio to parent', item= chain 5 F5V )
0.777

# get_value(readout='ratio to parent', item= chain 5 K7Q )
0.648

# get_value(readout='ratio to parent', item= chain 5 I3K )
0.682

# get_value(readout='ratio to parent', item= chain 5 E6M )
0.443

# get_value(readout='ratio to parent', item= chain 5 N4P )
0.00308

# get_value(readout='ratio to parent', item= chain 5 L8A )
0.711

# get_value(readout='ratio to parent', item= chain 5 N4T )
0.04

# get_value(readout='ratio to parent', item= chain 5 F5W )
0.695

# get_value(readout='ratio to parent', item= chain 5 L8N )
0.753

# get_value(readout='ratio to parent', item= chain 5 E6D )
0.941

# get_value(readout='ratio to parent', item= chain 5 E6V )
0.618

# get_value(readout='ratio to parent', item= chain 5 I2P )
1.04

# get_value(readout='ratio to parent', item= chain 5 I2W )
0.66

# get_value(readout='ratio to parent', item= chain 5 N4Y )
0.0536

# get_value(readout='ratio to parent', item= chain 5 I2Q )
0.711

# get_value(readout='ratio to parent', item= chain 5 F5S )
0.735

# get_value(readout='ratio to parent', item= chain 5 F5I )
0.886

# get_value(readout='ratio to parent', item= chain 5 I3P )
0.36

# get_value(readout='ratio to parent', item= chain 5 F5E )
0.848
